# key: entry, value: IC50
target.of.assay: ΔPH-Akt1 (Homo sapiens)
Construct: PCR deletion mutagenesis was done using the full length Akt1 gene in the pS2neo vector as template; biotin tag (from pS2neo vector); made in house; host or cells: Drosophila S2 cells
Sequence (P31749 with tags, fused parts or gaps): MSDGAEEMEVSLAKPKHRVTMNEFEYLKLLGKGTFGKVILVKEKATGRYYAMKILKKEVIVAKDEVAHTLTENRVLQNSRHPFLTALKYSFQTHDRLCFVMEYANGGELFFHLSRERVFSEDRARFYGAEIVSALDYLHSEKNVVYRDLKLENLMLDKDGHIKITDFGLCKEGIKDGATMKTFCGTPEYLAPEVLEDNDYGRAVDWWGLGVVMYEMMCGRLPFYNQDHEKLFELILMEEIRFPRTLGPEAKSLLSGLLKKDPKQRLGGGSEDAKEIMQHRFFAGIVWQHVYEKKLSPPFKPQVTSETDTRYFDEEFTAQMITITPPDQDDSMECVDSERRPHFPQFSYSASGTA
experiment: Akt kinase assay, GSK3 peptide substrate, Akt1 delta PH
Assay type: biochemical
details: pleckstrin homology domain deleted Akt1, GSK3 peptide substrate

OCCOc1nn2c(-c3ccccc3)nnc2cc1-c1ccccc1 [Compound 8]    > 50 µM

Note to self: IC50 recorded for COc1cc(-c2[nH]c(C3CCCN3C)nc2-c2ccncc2)ccc1Cl (centres unmarked) [Compound 19-11] was > 50 µM

* * *

Overview of recorded IC50 for various compounds
target.of.assay: Human Akt2 (Homo sapiens)
Construct: a middle T tag was added to the 5′ end of the full length Akt2 using the PCR primer; biotin tag (from pS2neo vector); made in house; host or cells: Drosophila S2 cells
Sequence (P31751 whole entry): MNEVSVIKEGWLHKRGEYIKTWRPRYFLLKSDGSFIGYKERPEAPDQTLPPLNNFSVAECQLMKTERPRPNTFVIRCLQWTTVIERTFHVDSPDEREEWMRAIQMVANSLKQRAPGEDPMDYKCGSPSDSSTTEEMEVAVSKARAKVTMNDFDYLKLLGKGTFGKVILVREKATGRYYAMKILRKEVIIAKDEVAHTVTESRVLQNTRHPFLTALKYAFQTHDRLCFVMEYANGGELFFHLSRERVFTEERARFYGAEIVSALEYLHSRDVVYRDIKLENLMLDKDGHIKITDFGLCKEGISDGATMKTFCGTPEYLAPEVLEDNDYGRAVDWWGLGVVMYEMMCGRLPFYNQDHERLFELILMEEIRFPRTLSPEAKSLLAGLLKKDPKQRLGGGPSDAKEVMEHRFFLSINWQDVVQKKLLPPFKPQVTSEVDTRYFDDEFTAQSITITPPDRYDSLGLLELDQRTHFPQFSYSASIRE
experiment: Akt kinase assay, GSK3 peptide substrate, Akt2
Type: biochemical
details: activated full length Akt2, GSK3 peptide substrate

COc1cc(-c2[nH]c(C3CCCN3C)nc2-c2ccncc2)ccc1Cl (centres unmarked) [Compound 19-11]    > 50 µM

# compound OCCOc1nn2c(-c3ccccc3)nnc2cc1-c1ccccc1 [Compound 8] ; its IC50 = > 50 µM

The measured values listed here are drawn from patent US20060142178A1.
